system: Saccharomyces cerevisiae; test: protein stability index of tFT-peptide fusion (C-terminal peptide) (PSI (0-1 scale)); higher = more stable (slower turnover); details: genetic background: wild type; temperature: 30 C

BIOSEQUENCE	protein stability index
LFSLFLRSPLTS	0.664
RLLFLPPPPPPP	0.654
RRSSLGIYWIYS	0.61
PLSPNIHQRPPA	0.75
VCVCCMGCGLGV	0.688
VVALTSVRSRDV	0.676
PPAPPPPLLNLP	0.714
PNAFTEPTHPGR	0.742
ASSLHFLYLPAL	0.709
FLASPTPSHPRL	0.787
WQNKKDNGKIRG	0.724
PTPPPRPPLSPP	0.692
VGPLAPVCLLVL	0.459
IALTSVRIPSSP	0.678
RGQTSLTGERNK	0.701
LIPTPPPHPPSP	0.679
VCLFWGVSAGCK	0.65
KPCGRAEERRSG	0.674
CCFAGFAVWSVD	0.7
PFVLVSDAHLIT	0.66
PPPHPPLPTFDP	0.707
WGGSSPHRTEPR	0.666
TYRYWGTLRYYD	0.761
PPLSPSLPPSPS	0.681
SAPEPTISKLLP	0.603
PRPPPSPPPILP	0.676
GVFRYKLILRKM	0.337
GRKKRGRKGEEK	0.631
PPAPPTSLPSPL	0.726
AETALGVCGVLC	0.785
PPAPLPSPRRSL	0.696
GWGGGSMDLRDR	0.702
VRRWCQFLGCCG	0.682
PSPLLSPPPPRP	0.706
FTTAGSGWESVW	0.636
HPPTCTTVLPTL	0.579
RTLWGYCPRSPL	0.718
SLLSRYFLLPLL	0.545
PDCPCVAVCSDI	0.728
SGAATSRRGLCS	0.672
RALLSPFYRFYV	0.596
RRGAGCAAVGLG	0.618
LCGGLSLPFAHV	0.691
SVPLTPKTPPPP	0.701
AAPGWDGTIGCG	0.753
LYICNYFKFKKR	0.71
GPCFKSQPKSPI	0.681
LHPPAPRSPPPR	0.639
LGRYHPWLLFLC	0.114
VVALVLVGRHGG	0.597
GWCLGFWCLLVC	0.118
PPLRPPAPEPSP	0.659
SVPSRSSAALCS	0.714
GPVVGGWSVVSK	0.655
LPLDSPSRPLPP	0.722
GGGEYHTIMRTT	0.786
TRIEPTQGVDSP	0.664
AVPTSPYSLIVY	0.476
LGFDRGGGGAGM	0.675
RALNRVWLSRRV	0.607
ERRKSKRKNENE	0.674
SFHCFFTTSWYS	0.701
APLPRRQFPLSP	0.687
ISWTRAPLAHPR	0.879
GCILSLCYAVST	0.389
ECVRWFKNTDRL	0.721
TWRRAVSERPYP	0.725
RVKRTGLGVWGF	0.649
CLAWWLGRVWVC	0.141
KKMMQNKKQTEI	0.727
VYPRRLLPSRGL	0.668
LCSIESGPICIL	0.676
PLRPLPTPRPPP	0.686
VFPSLCITSVCT	0.53
GFTLCPVSLGYF	0.688
PVLSLPPLSSPP	0.707
SGIIVSPAVDMY	0.667
FVVGGGLRMGAG	0.623
VVTFCCARVTKI	0.522
AGHACGSLRGHP	0.682
LSLICSLVHSIM	0.635
YCGGWWGGWEIG	0.719

###

tested on: Saccharomyces cerevisiae; assay: protein stability index of tFT-peptide fusion (C-terminal peptide) (PSI (0-1 scale)); higher = more stable (slower turnover); conditions: genetic background: wild type; temperature: 30 C
protein stability index by entry:
OBSERVABLE: protein stability index

BIOSEQUENCE	RECORDED_MEASUREMENT
LGFFPSPVLCVF	0.193
FALVSLSFALVE	0.292
VRTFVFLVGYCE	0.394
GGKTLSIFLRIS	0.159
FGLRVHPIVFIF	0.0769
QKGLFYCVILYC	0.156
YSVERCLFVSVA	0.314
VWVVRGFLGFGG	0.438
VFSVTVVFVSVL	0.191
VYFPRLLVRVSW	0.377
KHKIIGKYQRQI	0.338
VFMSVAPVSVLG	0.184
RGVGSGGLEGIG	0.514
GRRLGLLNLLSY	0.305
RSFPCITVFIRA	0.323
VCLCVIICSMSV	0.0249
SLPVSPLVRLLA	0.138
FCVGVLFSCLVF	0.301
WGEAGRPAGRGA	0.651
KCWSGTVMVRLG	0.191
FSPSHMLRIFCY	0.212
GWVVWLTGCLVF	0.443
LFLEVCFFRLYF	0.453
LVGYCGAWACVV	0.283
AWWMALAVPIVA	0.1
NFSALECKVQLT	0.653
LFVPVFSFGFVC	0.145
RPHPLHIPRRLA	0.216
LFFCYRVFLLVF	0.106
IYNIIFKYRTIT	0.0987
LVLGVEVCFVLG	0.168
VVWFCGFFFVMV	0.325
RPCLSALRFRFF	0.162
FRHFPLLLSFVR	0.323
WGRGYRWRIWDV	0.433
LLYYMPELLILT	0.199
KFKRLTKFYARQ	0.132
RKRKKISEIIAI	0.572
SVVYVIYCGGIL	0.336
TVETYNRARKAS	0.232
VFSAIPDWLILA	0.319

###

tested on: Saccharomyces cerevisiae; assay: protein stability index of tFT-peptide fusion (C-terminal peptide) (PSI (0-1 scale)); higher = more stable (slower turnover); details: genetic background: wild type; temperature: 30 C
Each item that follows carries a reported protein stability index.
OBSERVABLE: protein stability index

BIOSEQUENCE	OBSERVABLE	RECORDED_MEASUREMENT
RLKLDYSLIFPQ [MEI5 C-terminal 12 aa]	protein stability index	0.72
FPVTLWSKVILK [YHR073W-A C-terminal 12 aa]	protein stability index	0.559
IWCAPTVDARPI [NIT1 C-terminal 12 aa]	protein stability index	0.7
KADIACAGKQLI [YHL042W C-terminal 12 aa]	protein stability index	0.698
SLNLILISMTFI [YCR097W-A C-terminal 12 aa]	protein stability index	0.449
YKLFKFLTRERS [BNA4 C-terminal 12 aa]	protein stability index	0.657
LKPWEGRIYISE [IMA1 C-terminal 12 aa]	protein stability index	0.685
RKAVDALRSLTN [ACK1 C-terminal 12 aa]	protein stability index	0.722
YFKETLYKLANE [HIS5 C-terminal 12 aa]	protein stability index	0.705
FEWEDDESDEIA [ATG7 C-terminal 12 aa]	protein stability index	0.706
RRGDMCDVKENI [PUS7 C-terminal 12 aa]	protein stability index	0.677
SITLDDLENIFN [GDS1 C-terminal 12 aa]	protein stability index	0.711
LDKELTDGCKQQ [PEX19 C-terminal 12 aa]	protein stability index	0.684
TDTTLIYDIDLE [SPT8 C-terminal 12 aa]	protein stability index	0.718
LEWLSNSLKNST [ARF1 C-terminal 12 aa]	protein stability index	0.68
LQPLIDLDIDNK [ICS2 C-terminal 12 aa]	protein stability index	0.702
EKGIFAGDINSD [COX12 C-terminal 12 aa]	protein stability index	0.726
SLLLEKLDPEIE [UBX5 C-terminal 12 aa]	protein stability index	0.716
LGEYIEEMNIRS [YBP2 C-terminal 12 aa]	protein stability index	0.684
AIRRGLTKKNEK [GDE1 C-terminal 12 aa]	protein stability index	0.657
TVSNETKEARET [SPT14 C-terminal 12 aa]	protein stability index	0.672
MAINDCFDQAQG [YER076C C-terminal 12 aa]	protein stability index	0.693
FKGFLENIDSYT [AIM22 C-terminal 12 aa]	protein stability index	0.706
MTRLKKLLTLEW [ZIP2 C-terminal 12 aa]	protein stability index	0.733
WYNPSNQTYKSK [YLR222C-A C-terminal 12 aa]	protein stability index	0.727

###

Each record here notes measured protein stability index.
tested on: Saccharomyces cerevisiae; experiment: protein stability index of tFT-peptide fusion (C-terminal peptide) (PSI (0-1 scale)); higher = more stable (slower turnover); settings: genetic background: wild type; temperature: 30 C

BIOSEQUENCE	protein stability index
GFFFWTMCFWVV	0.284
CKCKLNKKTTKS	0.701
HSTESHHQLDNQ	0.649
SQPIRAMILRVP	0.53
SHPLFLPALSPP	0.721
VSRGGWLKWDEG	0.66
KHTGFAGGMTWT	0.707
VRAGLAGGPGRV	0.684
SRGNIPVCEGWS	0.742
DIEKRNKRGVCV	0.714
LFVFVLAGFCCV	0.381
PRSSTSFLPSFL	0.678
GSRVICMVVATM	0.488
EEEAETRHSMVY	0.738
SPPRSRPPPSLQ	0.679
VFMSVAPVSVLG	0.29
IASASGAQAGAR	0.636
ISPTPPAPSRPS	0.688
PSTVSPFRPPIT	0.711
KKQLIPPKHHQR	0.661
WGVSGAGPHLLL	0.74
YAGPCRRHSGGC	0.679
AVPSLYLLPFSF	0.69
QASFPRPSGRAS	0.703
PCPLPVLDASQF	0.716
IKFMTTGVRTMG	0.662
YCRVRYKKSVLR	0.694
AISPHPPPALTP	0.687
VLRSSFYLSFPR	0.611
LFLSAFFFRFFD	0.629
THVKVNNQARGR	0.722
WFGPPAPRKVSP	0.852
SRLPRGTYRGCP	0.711
VWVEVDGLLVVV	0.534
PPTPPPPRSTPS	0.766
CFSIPLVILNVL	0.413
PSQPYPSSQYIL	0.73
LWCDPVLVLELR	0.776
DVLFFSALKAHR	0.688
VCVVVLVGVVFL	0.3
PPSRPPAPSPRS	0.695
